# Study system: Glutamate NMDA receptor
# Protocol details: Displacement of [3H]-MK-801 from rat cortical membranes NMDA receptor by beta counting analysis in absence of spermine
Values of IC50 strictly less than 9 µM map to Met, and values of at least 9 µM map to Not met.

Look over these answered cases.
# Molecule, Assigned class
data = [
    ("N=C(N)c1ccc(-c2ccc(-c3ccc(-c4ccc(C(=N)N)cc4)nc3)cn2)cc1", "Not met"),
    ("N=C(N)c1ccc(NC(=O)CCCCCCC(=O)Nc2ccc(C(=N)N)cc2)cc1", "Not met"),
    ("CCCNC(=N)c1ccc(N2CCN(c3ccc(C(=N)NCCC)cc3)CC2)cc1", "Not met"),
    ("N=C(N)c1ccc(NC(=O)CCCCCCCCC(=O)Nc2ccc(C(=N)N)cc2)cc1", "Not met"),
    ("c1cc(N2CCCN(c3ccc(C4=NCCN4)cc3)CC2)ccc1C1=NCCN1", "Met"),
    ("N=C(NCCO)c1ccc(N2CCCN(c3ccc(/C(N)=N/CCO)cc3)CC2)cc1", "Not met"),
]

Lab log: compare recorded IC50 with 9 µM; is it strictly lower for N=C(N)c1ccc(N2CCN(c3ccc(C(=N)N)cc3)CC2)cc1 ?
Met

Lab log: compare recorded IC50 with 9 µM; is it strictly lower for N=C(N)c1ccc(C(=O)NCCCNC(=O)c2ccc(C(=N)N)cc2)cc1 ?
Not met

Lab log: compare recorded IC50 with 9 µM; is it strictly lower for N=C(N)c1ccc(C(=O)NCCCCCNC(=O)c2ccc(C(=N)N)cc2)cc1 ?
Not met

###

# Study system: Glutamate NMDA receptor
# Protocol details: Displacement of [3H]-MK-801 from rat cortical membranes NMDA receptor by beta counting analysis in absence of spermine
We begin with a simple list: items and their reported pIC50.
# log scale: pIC50 equals minus log10 of the concentration in mol/L

# Molecule, pIC50
records = [
    ("N=C(N)c1ccc(-c2ccc(-c3ccc(-c4ccc(C(=N)N)o4)s3)s2)o1", 5.30),
    ("c1cc(N2CCN(c3ccc(C4=NCCCN4)cc3)CC2)ccc1C1=NCCCN1", 4.62),
]

Report pIC50 for N=C(N)c1ccc(NC(=O)CCCC(=O)Nc2ccc(C(=N)N)cc2)cc1
3.64

Report pIC50 for N=C(N)c1ccc(N2CCCN(c3ccc(C(=N)N)cc3)CC2)cc1
6.60

Report pIC50 for N=C(NC1CCCC1)c1ccc(N2CCN(c3ccc(C(=N)NC4CCCC4)cc3)CC2)cc1
5.03

Report pIC50 for N=C(N)c1ccc(OC(=O)c2ccc(C(=O)Oc3ccc(C(=N)N)cc3)cc2)cc1 [BIS(4-CARBAMIMIDOYLPHENYL)TEREPHTHALATE]
4.97

Report pIC50 for N=C(N)c1ccc(C(=O)NCCCCCCNC(=O)c2ccc(C(=N)N)cc2)cc1
3.58

###

We begin with a simple list: items and their reported pIC50.
# Study system: Glutamate NMDA receptor
# Protocol details: Displacement of [3H]-MK-801 from rat cortical membranes NMDA receptor by beta counting analysis in presence of 30 uM spermine
# log scale: pIC50 equals minus log10 of the concentration in mol/L

Report pIC50 for N=C(N)c1ccc(OCc2cccc(COc3ccc(C(=N)N)cc3)c2)cc1
5.17

Report pIC50 for c1cc(N2CCN(c3ccc(C4=NCCN4)cc3)CC2)ccc1C1=NCCN1
3.97

Report pIC50 for N=C(N)c1ccc(-c2ccc(-c3ccc(C(=N)N)s3)s2)s1
5.17

Report pIC50 for CN(CCN(C)c1ccc(C(=N)N)cc1)c1ccc(C(=N)N)cc1
4.26

Report pIC50 for N=C(N)c1ccc(N2CCCN(c3ccc(C(=N)N)cc3)CC2)cc1
5.26

Report pIC50 for CCN(CCN(CC)c1ccc(C(=N)N)cc1)c1ccc(C(=N)N)cc1
4.86

Report pIC50 for N=C(N)c1ccc(NCCCCCCNc2ccc(C(=N)N)cc2)cc1
4.62

Report pIC50 for N=C(N)c1ccc(NCCCNc2ccc(C(=N)N)cc2)cc1
3.83

Report pIC50 for N=C(N)c1ccc(NC(=O)CCCCCCC(=O)Nc2ccc(C(=N)N)cc2)cc1
3.77

Report pIC50 for CC(C)NC(=N)c1ccc(NC(=O)c2cccc(C(=O)Nc3ccc(C(=N)NC(C)C)cc3)n2)cc1
4.13

Report pIC50 for N=C(N)c1ccc(NC(=O)c2cccc(C(=O)Nc3ccc(C(=N)N)cc3)c2)cc1
4.44

Report pIC50 for N=C(N)c1ccc(NCCCCCCCCNc2ccc(C(=N)N)cc2)cc1
4.51

Report pIC50 for N=C(NC1CC1)c1ccc(N2CCCN(c3ccc(C(=N)NC4CC4)cc3)CC2)cc1
3.67

Report pIC50 for N=C(N)c1ccc(NC(=O)CCCCCCCCC(=O)Nc2ccc(C(=N)N)cc2)cc1
4.20

Report pIC50 for N=C(N)c1ccc(NCCCCCCCNc2ccc(C(=N)N)cc2)cc1
4.60

Report pIC50 for NC(N)=NCCCCN=C(N)N
3.71

###

We begin with a simple list: items and their reported pIC50.
# Study system: Glutamate NMDA receptor
# Protocol details: Displacement of [3H]-MK-801 from rat cortical membranes NMDA receptor by beta counting analysis in absence of spermine
# log scale: pIC50 equals minus log10 of the concentration in mol/L

Provide pIC50, tested on Glutamate NMDA receptor, for c1cc(N2CCCN(c3ccc(C4=NCCCN4)cc3)CC2)ccc1C1=NCCCN1 .
4.89

Provide pIC50, tested on Glutamate NMDA receptor, for N=C(N)c1ccc(NC(=O)c2ccc(C(=O)Nc3ccc(C(=N)N)cc3)o2)cc1 .
3.82

Provide pIC50, tested on Glutamate NMDA receptor, for N=C(N)c1ccc(NCCCNc2ccc(C(=N)N)cc2)cc1 .
5.00

Provide pIC50, tested on Glutamate NMDA receptor, for N=C(N)c1ccc(OCCCCOc2ccc(C(=N)N)cc2)cc1 .
4.75

Provide pIC50, tested on Glutamate NMDA receptor, for NC(N)=NCCCCN=C(N)N .
5.34

Provide pIC50, tested on Glutamate NMDA receptor, for N=C(N)c1ccc(C(=O)Nc2cccc(NC(=O)c3ccc(C(=N)N)cc3)n2)cc1 .
3.90

Provide pIC50, tested on Glutamate NMDA receptor, for c1cc(N2CCN(c3ccc(C4=NCCN4)cc3)CC2)ccc1C1=NCCN1 .
5.19

###

We begin with a simple list: items and their reported IC50.
# Study system: Glutamate NMDA receptor
# Protocol details: Displacement of [3H]-MK-801 from rat cortical membranes NMDA receptor by beta counting analysis in presence of 30 uM spermine
// units = µM; emit number, no label

Example entries begin here.
# Given smiles, IC50 / µM
rows = [
    ("Cc1ccc(S(=O)(=O)N(CCOc2ccc(C(=N)N)cc2)CCOc2ccc(C(=N)N)cc2)cc1", 1.32),
    ("CCCC/N=C(/N)c1ccc(N2CCN(c3ccc(/C(N)=N\\CCCC)cc3)CC2)cc1", 139),
    ("CN(CCCN(C)c1ccc(C(=N)N)cc1)c1ccc(C(=N)N)cc1", 24.7),
    ("N=C(N)c1ccc(-c2ccc(-c3nc4ccc(C(=N)N)cc4[nH]3)s2)cc1", 13.4),
    ("CN(CCNc1ccc(C(=N)N)cc1)c1ccc(C(=N)N)cc1", 85.3),
]

Report IC50 for N=C(NC1CCCC1)c1ccc(N2CCCN(c3ccc(C(=N)NC4CCCC4)cc3)CC2)cc1
85.7

Report IC50 for N=C(N)c1ccc(-c2ccc(-c3ccc(-c4ccc(C(=N)N)cc4)nc3)cn2)cc1
30

Report IC50 for N=C(N)c1ccc(-c2ccc(-c3ccc(-c4ccc(C(=N)N)o4)s3)s2)o1
11.7

Report IC50 for N=C(N)c1ccc(OCc2ccccc2COc2ccc(C(=N)N)cc2)cc1
5.54

Report IC50 for N=C(N)c1ccc(NC(=O)CCCCCCCCCCC(=O)Nc2ccc(C(=N)N)cc2)cc1
27.7

Report IC50 for NCCCCCCCCc1ccc(CCCCN)s1
6.1

Report IC50 for N=C(N)c1ccc(NC(=O)CCCC(=O)Nc2ccc(C(=N)N)cc2)cc1
675

Report IC50 for N=C(N)c1ccc(NC(=O)c2ccc(C(=O)Nc3ccc(C(=N)N)cc3)o2)cc1
153

Report IC50 for N=C(N)c1ccc(N2CCN(c3ccc(C(=N)N)cc3)CC2)cc1
70.7

Report IC50 for N=C(N)c1ccc(OCc2ccc(COc3ccc(C(=N)N)cc3)cc2)cc1
25.7

Report IC50 for NCCCCCCCCCCCCN
245
